Biological target: Chloroquine resistance transporter (Plasmodium falciparum)
Sequence (whole entry): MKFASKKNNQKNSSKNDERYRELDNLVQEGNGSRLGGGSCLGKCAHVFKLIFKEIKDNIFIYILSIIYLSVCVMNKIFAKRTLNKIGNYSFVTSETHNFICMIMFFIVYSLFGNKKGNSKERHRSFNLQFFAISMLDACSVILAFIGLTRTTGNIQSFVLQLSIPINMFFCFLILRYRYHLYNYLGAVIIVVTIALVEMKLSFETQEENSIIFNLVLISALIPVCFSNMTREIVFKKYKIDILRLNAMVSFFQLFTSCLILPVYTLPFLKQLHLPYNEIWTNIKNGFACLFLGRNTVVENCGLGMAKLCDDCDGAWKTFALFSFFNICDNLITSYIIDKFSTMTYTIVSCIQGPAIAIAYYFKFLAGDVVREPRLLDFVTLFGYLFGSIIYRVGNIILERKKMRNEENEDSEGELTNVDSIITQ
Experiment: Inhibition of chloroquine-resistant Plasmodium falciparum Dd2 CRT expressed in Xenopus laevis oocyte assessed as inhibition of [3H]chloroquine uptake at 100 uM measured from 1 to 2 hrs
Reported inhibition values follow for various compounds

Some solved entries appear below for comparison.
Clc1ccc2c(NC(c3ccccc3)(c3ccc(CN4CCCC4)c(Cl)c3)c3ccc(CN4CCCC4)c(Cl)c3)ccnc2c1 = 72%
Fc1cc(C(Nc2ccnc3cc(Cl)ccc23)c2ccc(Cl)cc2)ccc1CN1CCCC1 (racemic) = 70%
Clc1ccc(C(Nc2ccnc3cc(Cl)ccc23)c2ccc(CN3CCCC3)cc2)cc1 (racemic) = 70%
Clc1cccc(C(Nc2ccnc3cc(Cl)ccc23)c2ccc(CN3CCCC3)cc2)c1 (racemic) = 70%
Clc1ccc(C(c2ccc(CN3CCCC3)cc2)N2CCN(c3ccnc4cc(Cl)ccc34)CC2)cc1 (racemic) = 58%
Clc1ccc(C(c2ccc(Cl)cc2)(c2ccc(CN3CCCC3)cc2)N2CCN(c3ccnc4cc(Cl)ccc34)CC2)cc1 = 42%

Now, please, on to the next compound.
## Input Looking for the measured inhibition of Fc1cc(C(Nc2ccnc3cc(Cl)ccc23)c2cccc(Cl)c2)ccc1CN1CCCC1 (racemic) , can you help?
## Output 70%
